Tested on: human EHMT2 913-1193 (Homo sapiens, UniProt Q96KQ7)
Sequence (Q96KQ7 913-1193): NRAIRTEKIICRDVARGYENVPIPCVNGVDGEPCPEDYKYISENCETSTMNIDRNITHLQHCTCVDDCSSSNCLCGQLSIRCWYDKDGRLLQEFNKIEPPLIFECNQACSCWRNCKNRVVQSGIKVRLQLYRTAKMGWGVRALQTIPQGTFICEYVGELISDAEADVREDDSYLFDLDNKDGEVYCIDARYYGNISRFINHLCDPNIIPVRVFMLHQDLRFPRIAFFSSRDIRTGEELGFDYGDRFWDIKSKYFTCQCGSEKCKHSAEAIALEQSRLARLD
Test protocol: EHMT2 enzyme assay on histone peptide substrate (3H-SAM SPA)
Experimental context: EHMT2 IC50, recombinant human EHMT2 913-1193, histone peptide substrate
pIC50: −log10 of the molar value.
Readout name: pIC50

Molecule: CNc1cc(C)nc(Nc2cc3c(c(C4=CCNCC(O)C4)c2F)OCC3)n1 (single isomer, unassigned) [Compound 373]
pIC50: > 7.00

Molecule: CNc1cc(C)nc(Nc2cc3c(c(C4=CCNC(C)CC4)c2F)OCCO3)n1 (single isomer, unassigned) [Compound 163]
pIC50: > 7.00

Molecule: CNc1cc(C)nc(Nc2cc3c(c(C4=CCNC(C)CC4)c2C)OCCC3)n1 (single isomer, unassigned) [Compound 385]
pIC50: 6.30 to 7.00

Molecule: CNc1ccnc(Nc2cc3c(c(C4=CCN(C)CCC4)c2)OCO3)n1
pIC50: 6.30 to 7.00

Molecule: CNc1cc(C)nc(Nc2cc3c(c(C4=CCNCCC4)c2C)OCC3)n1
pIC50: > 7.00

Molecule: [2H]Cc1nc(Nc2cc3c(c(C4=CCNCCC4)c2F)OCC3)nc(NCC([2H])([2H])[2H])c1F
pIC50: 6.30 to 7.00

Quick batch: pIC50 for everything below.
1. CNc1cc(C)nc(Nc2cc3c(c(C4=CCNCC(O)C4)c2C)OCC3)n1 (single isomer, unassigned) [Compound 358]
2. CNc1ccnc(Nc2cc3c(c(C4=CCN(C)CCC4)c2)OCC3)n1
3. COCCNc1cc(C)nc(Nc2cc3c(c(C4=CCNCCC4)c2)OCC3)c1

OUTPUT:
["6.30 to 7.00", "6.30 to 7.00", "6.30 to 7.00"]

###

Tested on: H3K9me2 in HCT116 cells
Test protocol: HCT116 H3K9me2 in-cell western assay
Format: cell-based
Experimental context: Homo sapiens, HCT-116, 72 h, HCT116 cells, 72 hours incubation; read-out: H3K9me2 ICW IC50
pIC50: −log10 of the molar value.
Readout name: pIC50

Examples with their reported pIC50 follow.
Compound: CCc1cc(NC)nc(Nc2cc3c(c(C4=CCN(C)CCC4)c2)OCC3)n1
pIC50: 6.30 to 7.00

Compound: [2H]C([2H])([2H])Nc1cc(C)nc(Nc2cc3c(c(C4=CCN(C)CCC4)c2F)OCC3)n1
pIC50: > 7.00

Compound: CNc1cc(C)nc(Nc2cc3c(c(C4=CCNCCC4)c2F)OCC3C)n1 (single isomer, unassigned)
pIC50: > 7.00

Compound: [2H]C([2H])([2H])CNc1cc(C)nc(Nc2cc3c(c(C4=CCNCCC4)c2F)OCC3)n1
pIC50: > 7.00

Here is another compound to look at.
INPUT: Reported pIC50 for CNc1cc(C)nc(Nc2cc3c(c(C4=C[C@H]5CNC[C@H]5C4)c2)OC(F)(F)O3)n1 (racemic) : what is it?
OUTPUT: < 5.70

###

For each record, write down the corresponding pIC50.
Tested on: human EHMT1 982-1266 (Homo sapiens, UniProt Q9H9B1)
Sequence (Q9H9B1 982-1266): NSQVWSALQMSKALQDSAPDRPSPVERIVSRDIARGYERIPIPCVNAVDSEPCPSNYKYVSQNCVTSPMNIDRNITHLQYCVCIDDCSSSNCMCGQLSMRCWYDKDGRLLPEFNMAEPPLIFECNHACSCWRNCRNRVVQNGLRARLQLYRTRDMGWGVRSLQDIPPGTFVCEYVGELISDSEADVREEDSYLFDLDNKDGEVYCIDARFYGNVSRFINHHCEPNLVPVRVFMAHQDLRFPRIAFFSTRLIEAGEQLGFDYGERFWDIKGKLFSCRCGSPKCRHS
Test protocol: EHMT1 enzyme assay on histone peptide substrate (3H-SAM SPA)
Experimental context: EHMT1 IC50, recombinant human EHMT1 982-1266, histone peptide substrate
pIC50: −log10 of the molar value.

Molecule: Cc1cc(NC2CCC2)nc(Nc2cc3c(c(C4=CCN(C)CCC4)c2)OCC3)n1 [Compound 318]
Result: 6.30 to 7.00
--
Molecule: CNc1cc(C)nc(Nc2cc3c(c(C4=CCN(CCOC)CCC4)c2)OCO3)n1 [Compound 145]
Result: 5.70 to 6.30
--
Molecule: [2H]Cc1cc(NC)nc(Nc2cc3c(c(C4=CCNCCC4)c2)OCC3)n1 [Compound 302]
Result: > 7.00
--
Molecule: CNc1cc(C)nc(Nc2cc3c(c(C4=CCNCCC4)c2Cl)OCCC3)n1 [Compound 175]
Result: > 7.00
--
Molecule: [2H]Cc1cc(NC)nc(Nc2cc3c(c(C4=CCNCCC4)c2)OCCO3)n1 [Compound 270]
Result: > 7.00

Quick batch: pIC50 for everything below.
1. Cc1cc(NC2CCC2)nc(Nc2cc3c(c(C4=CCNCCC4)c2)OCC3)n1 [Compound 325]
2. [2H]C([2H])([2H])Nc1cc(C)nc(Nc2cc3c(c(C4=CCNCCC4)c2)OCO3)n1 [Compound 281]
3. CNc1cc(C)nc(Nc2cc3c(c(C4=CCNCCC4)c2)OCC3)c1 [Compound 288]
4. CNc1cc(C)nc(Nc2cc3c(c(C4=CCNCC(O)C4)c2C)OCC3)n1 (single isomer, unassigned) [Compound 358]

OUTPUT:
> 7.00
> 7.00
> 7.00
6.30 to 7.00
